- targetSystem: T1, human CDH6 (full-length and EC domain deletion mutants) (Homo sapiens, UniProt P55285, DEL269-383)
- T1 construct: each one of the five EC domains could be deleted from full-length human CDH6; 3xFLAG (deletion mutants only, from the vector p3×FLAG-CMV-9); expressed in transfected cells; host or cells: 293α cells
- T1 sequence (P55285 with tags, fused parts or gaps DEL269-383): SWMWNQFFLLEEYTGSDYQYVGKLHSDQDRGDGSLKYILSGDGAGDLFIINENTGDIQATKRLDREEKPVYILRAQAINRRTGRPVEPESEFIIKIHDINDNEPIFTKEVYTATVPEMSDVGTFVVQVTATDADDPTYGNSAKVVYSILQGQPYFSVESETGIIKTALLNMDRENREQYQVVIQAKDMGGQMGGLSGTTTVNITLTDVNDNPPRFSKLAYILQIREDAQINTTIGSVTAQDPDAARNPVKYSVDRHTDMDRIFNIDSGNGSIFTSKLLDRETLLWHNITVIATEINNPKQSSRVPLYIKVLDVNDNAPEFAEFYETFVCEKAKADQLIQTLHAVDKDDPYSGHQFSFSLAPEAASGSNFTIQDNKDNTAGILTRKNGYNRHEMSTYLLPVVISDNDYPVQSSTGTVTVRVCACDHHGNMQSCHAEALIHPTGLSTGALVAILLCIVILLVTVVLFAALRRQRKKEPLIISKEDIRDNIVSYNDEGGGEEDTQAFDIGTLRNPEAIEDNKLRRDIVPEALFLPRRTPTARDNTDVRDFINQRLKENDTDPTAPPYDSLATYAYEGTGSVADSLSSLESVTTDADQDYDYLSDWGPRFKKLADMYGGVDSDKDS
- testProtocol: Epitope analysis of rat anti-CDH6 antibody by flow cytometry using domain deletion mutants
- Assay type: binding
- recordedConditions: flow cytometry; transfected 293α cells; antibody 20 nM
reportedProperty: binding to EC3 deletion mutant

rG056: rat anti-human CDH6 monoclonal antibody produced by hybridoma rG056; variable regions SEQ ID NO: 30 and 35 (antibody, listed as Rattus norvegicus, V domains shown) VL: DVQMTQSPSSLAASPGESVSISCRATKSIGIYLAWYQQKPGKTFKLLIYSGSTLQSGTPSRFSGSGSGTDFTLTIRSLEPEDFGLYFCQQFYENPFTFGSGTKLEIRRA VH: EVQLQESGPGLVKPSQSLSLTCSVTDYSITTYFWGWIRKFPGNKMEWMGYMSYRGGTSYNPSLKSRISITRDTSKNQFFLQLNSVTTEDTATYYCARCPNYGGHSLVFDYWGQGVMVTVSS
do not bind
rG061: rat anti-human CDH6 monoclonal antibody produced by hybridoma rG061; variable regions SEQ ID NO: 40 and 45 (antibody, listed as Rattus norvegicus, V domains shown) VL: DVQMTQSPSYLAASPGESVSISCKATKSISNYLAWYQQKPGEAYKVLIYSGSTLQSGTPSRFSGSGSGTDFTLTIRSLEPEDFGLYSCQQYYEKPLTFGSGTKLEIKRA VH: EVQLQESGPGLVKPSQSLSLTCSVTGYSITTYYWGWIRKFPGNKMEWMGYISYSGRTSYNPSLKSRMSITRDASKNQFFLQLNSVTTDDTATYYCARSPINHGGYWYFDFWGPGTMVTVSS
do not bind
rG019: rat anti-human CDH6 monoclonal antibody produced by hybridoma rG019; variable regions SEQ ID NO: 10 and 15 (antibody, listed as Rattus norvegicus, V domains shown) VL: DIQMTQSPSLLSASVGDRVTLNCKASQNIYKNLAWYQQKLGEGPKLLIYDANTLQTGIPSRFSGSGSGSDFTLTISSLQPEDVATYFCQQYYSGWAFGGVTNLELKRA VH: QVQLQQSGAELVKPGSSVKISCKASGYTFTRNFMHWIKQQPGNGLEWIGWIYCGDGETEYNQKFNGKATLTADRSSSTAYMELSRLTSEDSAVYFCARGVYGGFAGGYFDFWGQGVMVTVSS
do not bind
rG055: rat anti-human CDH6 monoclonal antibody produced by hybridoma rG055; variable regions SEQ ID NO: 20 and 25 (antibody, listed as Rattus norvegicus, V domains shown) VL: DVQMTHSPSYLAASPGESVSISCKTSKNISNYLVWYQQKPGEAYKLLIYSGSTLQSGTPSRFSGSGSGTDFTLTIRSLEPEDFGLYFCQQYYEKPFTFGSGTKLEIKRA VH: EVQLQESGPGLVRPSQSLSLSCSVTDYSITSNYWGWIRRFPGNKMEWMGYITYSGYTSYNPSLQSRISITRDTSKNQFFLQLNSVTAEDTATYYCARSINHGGYSYVVDAWGPGASVTVSS
do not bind
